Hey, just so you know, these numbers are from patent US20190055322A1.

- target-of-assay: GST-PcrV (strain PAO1, amino acid residues 1-294) (Pseudomonas aeruginosa strain PAO1)
- assay: SPR Biacore T100, GST-PcrV immobilised
I'd appreciate it if you could supply kon values for the items below.
Write it as a number; the unit M⁻¹ s⁻¹ goes unstated.

Reported kon, binder Nanobody 5H01 (VHH, also called 05H01) VHH: EVQLVESGGGLVQPGGSLRLSCAASGSTLDYYAIGWFRQAPGKEREGVSCTSNSGSTYYGGSVKGRFTASRDNAKNTVYLQMNSLRPEDTAVYYCVATIGCATLGGTLDVQRYYYRGQGTQVTVSS : ____
160000

Reported kon, binder Nanobody 7C10 (VHH) VHH: EVQLVESGGGLVQAGGSLRLSCTASGRTLSSYTMGWFRQAPGTEREFVAAMTRSGFNTYYADSVKGRFTISRDSTENTMALQMSSLKPEDTAVYYCTAGRGLTSYRADYWGQGTLVTVSS : ____
1.2e+06

Reported kon, binder Nanobody 2B10 (VHH, also called 02B10) VHH: EVQLVESGGGLVQPGGSLRLSCAASGSIFSINNMGWYRQAPGKQRELVTVVTSNLITTYADSVKGRFTISRDNAKNTVYLQMNSLKPEDTAVYYCNAWARSVGSVPYSQFWGQGTLVTVSS : ____
510000

Reported kon, binder Nanobody 3E10 (VHH) VHH: EVQLVESGGGLVQAGGSLRLSCTASGHTFSSYTMGWFRQAPGKEREFVAAMTRSGFNTHYSDSVKGRFTISRDNTSRDNTKITMALQMNSLKPEDTAVYYCTTGRGLTSYVANFWGQGTQVTVSS : ____
2.7e+06

Reported kon, binder Nanobody 4G10 (VHH) VHH: EVQLVESGGGLVQAGGSLRLSCVISEDGVRNYDMGWFRQAPGKEREFVATINWSGGSTNYADSVKGRFTVSRDNAKNTMYLQMDSLKPEDTAVYYCVAAGFYNNYLRTAPNDWNDWGQGTQVTVSS : ____
140000

Reported kon, binder Nanobody 5E02 (VHH) VHH: EVQLVESGGGLVQPGGSLRLSCAASGITLDSIAICWFRQAPGKEREGVSCSRGSDGSTYYADSVKGRFTISRVNAKNTVYLQMNSLKPEDTAVYYCAAAPSIFYSGGYFPSGMDYWGKGTQVTVSS : ____
180000
